- Tested on: A549
- Test Protocol: NCI tumour cell line growth inhibition, 48 h
Activity calls are given as the source filed them. Rule as the data show it: active = GI50 up to about 1.1 µM and inactive = higher.
Below, each entry is listed alongside its reported GI50.

Consider the following illustrative entries.
O=C(c1ccccc1)C(c1ccccc1)C1(O)C(=O)Nc2c(Cl)cc(Cl)cc21 (stereo not drawn): 18.9 µM (inactive)
COc1ccc(-c2csc(-n3c(-c4ccccc4)nc4c(Br)cc(Br)cc4c3=O)n2)cc1: 25.5 µM (inactive)
C#CCNC(Cc1ccccc1)C(=O)O (stereo not drawn): > 100 µM (inactive)
CC(=O)OC[C@@H]1[C@H]2CC(=O)O[C@H]2C[C@H]1OC(C)=O: > 100 µM (inactive)
COc1ccc(-c2cc(C(=O)Nc3ccc(C)c(C)c3)nc(NC#N)n2)cc1: > 100 µM (inactive)
NC(=O)c1ccc(/N=N/O)nc1: > 100 µM (inactive)
COc1ccc(/N=N/c2c(-c3ccccc3)nn(C(=O)CC(=O)Nc3cccc(Cl)c3)c2-c2ccccc2)cc1: 32.3 µM (inactive)
Cc1ccc(C)n2c1nc1cc3ccccc3cc12: 28.6 µM (inactive)

Consider now this further molecule.
Value of measured GI50 for the entry N#CC(c1cc2c(cc1Br)OCO2)N1CCOCC1 (stereo not drawn) : > 100 µM (inactive)
